The origin of these recorded values is ChEMBL document CHEMBL5532678.

Target: Serine/threonine-protein kinase pim-1 (Homo sapiens, UniProt P11309)
Sequence (P11309 whole entry): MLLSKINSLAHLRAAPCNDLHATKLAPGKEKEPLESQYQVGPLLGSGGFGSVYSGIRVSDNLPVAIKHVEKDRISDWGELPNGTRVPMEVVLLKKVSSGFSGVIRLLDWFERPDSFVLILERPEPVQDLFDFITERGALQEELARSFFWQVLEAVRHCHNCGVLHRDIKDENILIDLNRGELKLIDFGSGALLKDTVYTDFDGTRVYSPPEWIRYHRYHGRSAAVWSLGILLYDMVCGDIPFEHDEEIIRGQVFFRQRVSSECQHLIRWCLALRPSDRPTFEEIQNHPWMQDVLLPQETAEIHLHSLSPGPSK
Assay: Inhibition of human recombinant PIM1
assay-endpoint: IC50 (µM)

Fill blank: measured IC50 of the molecule Cc1ccc(C(C)C)c(O)c1/C=N/N=C1/SC(CC(=O)O)C(=O)N1c1cccc2ccccc12 (stereo not drawn) is ____.
4.09

P: Cc1ccc(C(C)C)c(O)c1/C=N/N=C1NC(=O)C(CC(=O)O)S1 (stereo not drawn)
Q: COc1ccc(N2C(=O)C(CC(=O)O)S/C2=N/N=C/c2c(C)ccc(C(C)C)c2O)cc1 (stereo not drawn)
Please indicate which entry, P or Q , has the lower recorded IC50 value. Mark your answer with the label of the selected entry.
P

* * *

Target: Serine/threonine-protein kinase pim-2 (Homo sapiens, UniProt Q9P1W9)
Sequence (Q9P1W9 whole entry): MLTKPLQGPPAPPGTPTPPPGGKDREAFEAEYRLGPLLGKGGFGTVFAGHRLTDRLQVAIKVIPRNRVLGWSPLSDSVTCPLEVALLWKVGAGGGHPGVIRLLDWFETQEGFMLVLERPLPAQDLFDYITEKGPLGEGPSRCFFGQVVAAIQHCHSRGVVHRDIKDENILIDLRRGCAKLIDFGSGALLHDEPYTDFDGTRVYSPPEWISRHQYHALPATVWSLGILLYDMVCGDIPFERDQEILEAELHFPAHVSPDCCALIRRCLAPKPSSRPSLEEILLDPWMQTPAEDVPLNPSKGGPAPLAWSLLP
Experiment: Inhibition of human PIM2 by ADP-Glo luminescent assay
assay-endpoint: pIC50
// pIC50 is dimensionless: -log10 of concentration (M)

Fill blank: measured pIC50 of the compound Cc1nc2cccc3c2nc1N[C@H](C)/C=C\C[C@H]1CNC(=O)c2cc-3[nH]c21 is ____.
6.30

* * *

Target: Polyunsaturated fatty acid 5-lipoxygenase (Homo sapiens, UniProt P09917)
Sequence (P09917 whole entry): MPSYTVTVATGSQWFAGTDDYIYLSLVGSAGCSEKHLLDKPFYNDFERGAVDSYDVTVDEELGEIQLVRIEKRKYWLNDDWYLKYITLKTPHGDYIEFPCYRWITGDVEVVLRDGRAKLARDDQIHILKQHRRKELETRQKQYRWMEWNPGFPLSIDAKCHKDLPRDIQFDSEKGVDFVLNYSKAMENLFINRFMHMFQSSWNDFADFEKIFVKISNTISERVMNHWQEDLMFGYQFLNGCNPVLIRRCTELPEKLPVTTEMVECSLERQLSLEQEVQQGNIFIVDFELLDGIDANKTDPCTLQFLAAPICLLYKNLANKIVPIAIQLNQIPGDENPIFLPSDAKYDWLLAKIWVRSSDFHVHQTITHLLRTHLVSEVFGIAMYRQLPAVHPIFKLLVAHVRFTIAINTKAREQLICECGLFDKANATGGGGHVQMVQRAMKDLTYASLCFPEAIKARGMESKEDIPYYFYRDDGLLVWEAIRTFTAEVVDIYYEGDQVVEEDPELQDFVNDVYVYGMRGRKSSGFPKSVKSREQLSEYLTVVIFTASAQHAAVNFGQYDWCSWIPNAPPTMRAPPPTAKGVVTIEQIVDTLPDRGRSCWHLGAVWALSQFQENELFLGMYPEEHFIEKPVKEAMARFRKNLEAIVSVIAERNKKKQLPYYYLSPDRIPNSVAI
Assay: Inhibition of 5-LOX in human PMNL cells
pIC50: −log10 of the molar value.
assay-endpoint: pIC50

Fill blank: measured pIC50 of the molecule Cc1ccc(C(C)C)c(O)c1/C=N/N=C1NC(=O)C(CC(=O)O)S1 (stereo not drawn) is ____.
5.45

Param item: COc1ccc(N2C(=O)C(CC(=O)O)S/C2=N/N=C/c2c(C)ccc(C(C)C)c2O)cc1 (stereo not drawn)
5.55

Param item: Cc1ccc(C(C)C)c(O)c1/C=N/N=C1/SC(CC(=O)O)C(=O)N1c1cccc2ccccc12 (stereo not drawn)
5.50

* * *

pIC50: −log10 of the molar value.
Notes on pIC50 obtained with Prostaglandin G/H synthase 1 (Homo sapiens, UniProt P23219).
Sequence (P23219 whole entry): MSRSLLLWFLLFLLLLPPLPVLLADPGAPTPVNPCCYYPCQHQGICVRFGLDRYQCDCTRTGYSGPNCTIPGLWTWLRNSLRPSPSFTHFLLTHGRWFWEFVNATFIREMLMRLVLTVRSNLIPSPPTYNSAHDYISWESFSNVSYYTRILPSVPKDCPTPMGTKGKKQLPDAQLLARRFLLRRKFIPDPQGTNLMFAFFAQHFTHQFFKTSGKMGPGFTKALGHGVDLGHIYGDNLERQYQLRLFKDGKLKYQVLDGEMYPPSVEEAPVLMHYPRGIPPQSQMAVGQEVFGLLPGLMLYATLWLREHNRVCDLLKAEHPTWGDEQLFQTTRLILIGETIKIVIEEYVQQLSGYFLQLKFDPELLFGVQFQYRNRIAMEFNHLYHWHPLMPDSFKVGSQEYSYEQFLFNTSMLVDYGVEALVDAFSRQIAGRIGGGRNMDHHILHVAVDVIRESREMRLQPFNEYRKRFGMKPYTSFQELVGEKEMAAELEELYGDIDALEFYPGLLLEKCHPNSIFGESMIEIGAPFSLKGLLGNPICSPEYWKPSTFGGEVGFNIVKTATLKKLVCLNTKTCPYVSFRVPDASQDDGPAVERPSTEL
assay-endpoint: pIC50

Return pIC50 measured with Prostaglandin G/H synthase 1 (Homo sapiens, UniProt P23219) given this compound: COc1ccc(N2C(=O)C(CC(=O)O)S/C2=N/N=C/c2c(C)ccc(C(C)C)c2O)cc1 (stereo not drawn)
4.85

a: Cc1ccc(C(C)C)c(O)c1/C=N/N=C1NC(=O)C(CC(=O)O)S1 (stereo not drawn)
b: Cc1ccc(C(C)C)c(O)c1/C=N/N=C1/SC(CC(=O)O)C(=O)N1c1cccc2ccccc12 (stereo not drawn)
Between a and b , whose measured pIC50 reads higher? Mark your answer with the label of the selected entry.
b

* * *

System: MCF7
Test: Antiproliferative activity against human MCF7 cells assessed as reduction in cell growth incubated for 48 hrs by MTT assay
Format: functional, cell-based
Conditions: MCF7, 48 h
assay-endpoint: IC50 (µM)

Here are 2 molecules together with their reported answers.
Return IC50 measured with MCF7 given this molecule: Cc1nc2sc3c(c2c(C)c1Br)NC(c1ccc(O)c(O)c1)NC3=O (centres undefined)
0.22

Param item: N#Cc1c(-c2ccccc2O)cc(-c2ccc(N3C(=O)c4ccccc4C3=O)cc2)nc1N
13.4

A: COc1cc(C2NC(=O)c3sc4nc(C)c(Br)c(C)c4c3N2)ccc1O (centres undefined)
B: N#Cc1c(-c2ccco2)cc(-c2ccc(N3C(=O)c4ccccc4C3=O)cc2)nc1N
Between A and B , whose measured IC50 reads higher? Mark your answer with the label of the selected entry.
B
